Test system: E. coli TESEC Mtb Alr
Assay: growth (OD600 after 10 h); higher = more growth (less inhibition)
Settings: arabinose 100 nM; compound 0.1 mM; raw OD600 reference: median of DMSO wells 0.413, cell-free background 0.052
Counter-ions that a name gives are not always drawn.
Output true (1) for growth not less than 0.4; output false (0) otherwise.

{"molecule": "CC(C)(O)c1ccccc1CC[C@@H](SCC1(CC(=O)O)CC1)c1cccc(/C=C/c2ccc3ccc(Cl)cc3n2)c1 [Montelukast]", "answer label": "true (1)"}
{"molecule": "N[C@@H]1CONC1=O [D-cycloserine]", "answer label": "false (0)"}
{"molecule": "CCCc1cc(C(N)=S)ccn1 [Prothionamide]", "answer label": "true (1)"}
{"molecule": "CN[C@@H]1[C@H](O)[C@H](NC)[C@H]2O[C@@]3(O)C(=O)C[C@@H](C)O[C@H]3O[C@@H]2[C@H]1O [Spectinomycin dihydrochloride]", "answer label": "false (0)"}
{"molecule": "CNS(=O)(=O)Cc1ccc2[nH]cc(CCN(C)C)c2c1 [Sumatriptan succinate]", "answer label": "true (1)"}
{"molecule": "CCCCN(CCCC)CCC(O)c1cc2c(Cl)cc(Cl)cc2c2cc(C(F)(F)F)ccc12 (stereo not drawn) [Halofantrine hydrochloride]", "answer label": "true (1)"}
{"molecule": "Clc1cnccn1 [2-Chloropyrazine]", "answer label": "true (1)"}
{"molecule": "CNC(=O)c1c(I)c(C(=O)NCC(=O)Nc2c(I)c(C(=O)O)c(I)c(C(=O)NCCO)c2I)c(I)c(N(C)C(C)=O)c1I [Ioxaglic acid]", "answer label": "true (1)"}
{"molecule": "NCc1ccc(S(N)(=O)=O)cc1 [Mafenide hydrochloride]", "answer label": "true (1)"}
{"molecule": "COc1cc(NC(C)CCCN)c2ncccc2c1 (stereo not drawn) [Primaquine diphosphate]", "answer label": "false (0)"}
{"molecule": "CS(=O)(=O)c1ccc([C@@H](O)[C@@H](CO)NC(=O)C(Cl)Cl)cc1 [Thiamphenicol]", "answer label": "false (0)"}
{"molecule": "COc1ncnc(NS(=O)(=O)c2ccc(N)cc2)c1OC [Sulfadoxine]", "answer label": "true (1)"}
{"molecule": "C#C[C@]1(OC(C)=O)CC[C@H]2[C@@H]3CCC4=CC(=NO)CC[C@@H]4[C@H]3CC[C@@]21CC (mixture of isomers) [Norgestimate]", "answer label": "false (0)"}
{"molecule": "O=C(CCCN1CCN(c2ccccn2)CC1)c1ccc(F)cc1 [Azaperone]", "answer label": "true (1)"}
{"molecule": "C#C[C@]1(OC(C)=O)CC[C@H]2[C@@H]3CCC4=C[C@@H](OC(C)=O)CC[C@@H]4[C@H]3CC[C@@]21C [Ethynodiol diacetate]", "answer label": "false (0)"}
{"molecule": "CC1(C)O[C@@H]2[C@@H](CO[C@@]3(COS(N)(=O)=O)OC(C)(C)O[C@@H]23)O1 [Topiramate]", "answer label": "true (1)"}
{"molecule": "CC=CC1=C(C(=O)O)N2C(=O)[C@@H](NC(=O)[C@H](N)c3ccc(O)cc3)[C@H]2SC1 [Cefprozil]", "answer label": "true (1)"}
{"molecule": "C[C@]1(Cn2ccnn2)[C@H](C(=O)O)N2C(=O)C[C@H]2S1(=O)=O [Tazobactam]", "answer label": "false (0)"}
{"molecule": "CCCCC(CC)CN1CN(CC(CC)CCCC)CC(C)(N)C1 (stereo not drawn) [Hexetidine]", "answer label": "false (0)"}

---

Tested on: E. coli TESEC Mtb Asd
Test: growth (OD600 after 10 h); higher = more growth (less inhibition)
Settings: arabinose induction (level): High; compound 0.1 mM; raw OD600 reference: median of DMSO wells 0.331, cell-free background 0.041
Where a name gives a salt, the structure may show the parent alone.
recorded metric: growth

{"compound": "CN(C)CCc1c[nH]c2ccc(Cn3cncn3)cc12 [Rizatriptan benzoate]", "recorded metric": "growth", "recorded measurement": 0.337}
{"compound": "C[C@@H]1[C@H](O)[C@@H](C)/C=C/C=C/C=C/C=C/C=C/C=C/C=C/[C@H](O[C@@H]2O[C@H](C)[C@@H](O)[C@H](N)[C@@H]2O)C[C@@H]2O[C@](O)(C[C@@H](O)C[C@@H](O)[C@H](O)CC[C@@H](O)C[C@@H](O)CC(=O)O[C@H]1C)C[C@H](O)[C@H]2C(=O)O", "recorded metric": "growth", "recorded measurement": 0.416}
{"compound": "COCC1=C(C(=O)OC(C)OC(=O)OC(C)C)N2C(=O)[C@@H](NC(=O)/C(=N\\OC)c3csc(N)n3)[C@H]2SC1 (stereo partly specified)", "recorded metric": "growth", "recorded measurement": 0.215}
{"compound": "Cc1ccnc(NS(=O)(=O)c2ccc(N)cc2)n1", "recorded metric": "growth", "recorded measurement": 0.437}
{"compound": "Cc1nnc(SCC2=C(C(=O)O)N3C(=O)[C@@H](NC(=O)Cn4cnnn4)[C@H]3SC2)s1 [Cefazolin sodium salt]", "recorded metric": "growth", "recorded measurement": 0.313}
{"compound": "COc1ccccc1N1CCN(CCCNc2cc(=O)n(C)c(=O)n2C)CC1 [Urapidil hydrochloride]", "recorded metric": "growth", "recorded measurement": 0.28}

---

System: E. coli TESEC Mtb Alr
Assay: growth (OD600 after 10 h); higher = more growth (less inhibition)
Conditions: arabinose 10000000 nM; compound 0.1 mM; raw OD600 reference: median of DMSO wells 0.146, cell-free background 0.041
Counter-ions that a name gives are not always drawn.

{"compound": "CN(C)c1nc(N(C)C)nc(N(C)C)n1", "growth": 0.163}
{"compound": "CCCCOc1ccc(CC(=O)NO)cc1", "growth": 0.0983}
{"compound": "CC[C@H]1OC(=O)[C@H](C)[C@@H](O[C@H]2C[C@@](C)(OC)[C@@H](O)[C@H](C)O2)[C@H](C)[C@@H](O[C@@H]2O[C@H](C)C[C@H](N(C)C)[C@H]2O)[C@](C)(O)C[C@@H](C)CN(C)[C@H](C)[C@@H](O)[C@]1(C)O", "growth": 0.0413}
{"compound": "CCCCc1cc2ccccc2c(OCCN(C)C)n1 [Dimethisoquin hydrochloride]", "growth": 0.157}
{"compound": "CCN1CCN(C(=O)N[C@@H](C(=O)N[C@@H]2C(=O)N3C(C(=O)O)=C(CSc4nnnn4C)CS[C@H]23)c2ccc(O)cc2)C(=O)C1=O [Cefoperazone dihydrate]", "growth": 0.184}
{"compound": "CCN(CC)C(=S)SSC(=S)N(CC)CC", "growth": 0.06}
{"compound": "O=C1C(O)=C(O)C(=O)C(O)=C1O [Tetrahydroxy-1,4-quinone hydrate]", "growth": 0.142}
{"compound": "CN(C)CCCN1c2ccccc2Sc2ccccc21 [Promazine hydrochloride]", "growth": 0.158}
{"compound": "C=CCSCC1Nc2cc(Cl)c(S(N)(=O)=O)cc2S(=O)(=O)N1 (configuration not stated) [Althiazide]", "growth": 0.141}
{"compound": "O=C(O)c1cccnc1", "growth": 0.152}
{"compound": "CCC(C)(CN(C)C)OC(=O)c1ccccc1 (configuration not stated) [Amyleine hydrochloride]", "growth": 0.142}
{"compound": "CC(C)NC(=N)NC(=N)Nc1ccc(Cl)cc1 [Proguanil hydrochloride]", "growth": 0.142}
{"compound": "CN(C)[C@@H]1C(=O)C(C(=O)NCNCCCC[C@H](N)C(=O)O)=C(O)[C@@]2(O)C(=O)C3=C(O)c4c(O)cccc4[C@@](C)(O)[C@H]3C[C@@H]12", "growth": 0.101}
{"compound": "Cc1ccc(NC(=O)c2ccc(CN3CCN(C)CC3)cc2)cc1Nc1nccc(-c2cccnc2)n1", "growth": 0.161}
{"compound": "CN1CCc2cccc3c2[C@H]1Cc1ccc(O)c(O)c1-3 [R(-) Apomorphine hydrochloride hemihydrate]", "growth": 0.14}
{"compound": "CCN(CC)CC(=O)Nc1c(C)cccc1C [Lidocaine hydrochloride]", "growth": 0.146}
{"compound": "CC/C(=C(\\c1ccccc1)c1ccc(OCCN(C)C)cc1)c1ccccc1 [Tamoxifen citrate]", "growth": 0.0425}
{"compound": "C[C@H](CCC(=O)O)[C@H]1CC[C@H]2[C@@H]3[C@H](O)C[C@@H]4C[C@H](O)CC[C@]4(C)[C@H]3CC[C@]12C", "growth": 0.143}
{"compound": "CC(c1cc2ccccc2s1)N(O)C(N)=O (configuration not stated)", "growth": 0.151}
{"compound": "CC(=O)O[C@H]1C[C@@H]2CC[C@@H]3[C@H](CC[C@@]4(C)[C@H]3C[C@H]([N+]3(C)CCCCC3)[C@@H]4OC(C)=O)[C@@]2(C)C[C@@H]1N1CCCCC1 [Vecuronium bromide]", "growth": 0.0773}
{"compound": "CC(=O)O[C@]1(C(C)=O)CC[C@H]2[C@@H]3C=C(Cl)C4=CC(=O)[C@@H]5C[C@@H]5[C@]4(C)[C@H]3CC[C@@]21C [Cyproterone acetate]", "growth": 0.0975}
{"compound": "OCCOCCN1CCN(C2=Nc3ccccc3Sc3ccccc32)CC1 [Quetiapine hemifumarate]", "growth": 0.151}
{"compound": "CN1CCCN=C1/C=C/c1cccs1 [Pyrantel tartrate]", "growth": 0.148}
{"compound": "Clc1ccc2c(c1)CCc1cccnc1C2=C1CCNCC1", "growth": 0.145}
{"compound": "C[N+]1(CCCCC[N+]2(C)CCCC2)CCCC1 [Pentolinium bitartrate]", "growth": 0.143}
{"compound": "C[C@@H]1C[C@H]2[C@@H]3C[C@H](F)C4=CC(=O)C=C[C@]4(C)[C@@]3(Cl)[C@@H](O)C[C@]2(C)[C@H]1C(=O)COC(=O)C(C)(C)C [Clocortolone pivalate]", "growth": 0.151}
{"compound": "NS(=O)(=O)c1cc2c(cc1C(F)(F)F)NCNS2(=O)=O [Hydroflumethiazide]", "growth": 0.147}
{"compound": "C#CCN(C)CCCOc1ccc(Cl)cc1Cl [Clorgyline hydrochloride]", "growth": 0.133}
{"compound": "Cc1cnc(NC(=O)C2=C(O)c3ccccc3S(=O)(=O)N2C)s1", "growth": 0.149}
{"compound": "NS(=O)(=O)c1cc2c(cc1Cl)NC(CC1CCCC1)NS2(=O)=O (configuration not stated) [Cyclopenthiazide]", "growth": 0.143}
{"compound": "O=P(O)(O)C(O)(Cc1cccnc1)P(=O)(O)O [Risedronic acid monohydrate]", "growth": 0.156}
{"compound": "CN(C)CCN1C(=O)c2ccccc2N(C)c2ccccc21 [Dibenzepine hydrochloride]", "growth": 0.139}

The origin of these recorded values is the supplement of paper PMC9262897.
